Value source: patent US20260152487A1

# log10(EC50) listing for each entry below
Target: recombinant human PKM2 (Homo sapiens, UniProt P14618)
Construct: His (N); purchased R&D Systems
Sequence (P14618 2-531 limits assumed): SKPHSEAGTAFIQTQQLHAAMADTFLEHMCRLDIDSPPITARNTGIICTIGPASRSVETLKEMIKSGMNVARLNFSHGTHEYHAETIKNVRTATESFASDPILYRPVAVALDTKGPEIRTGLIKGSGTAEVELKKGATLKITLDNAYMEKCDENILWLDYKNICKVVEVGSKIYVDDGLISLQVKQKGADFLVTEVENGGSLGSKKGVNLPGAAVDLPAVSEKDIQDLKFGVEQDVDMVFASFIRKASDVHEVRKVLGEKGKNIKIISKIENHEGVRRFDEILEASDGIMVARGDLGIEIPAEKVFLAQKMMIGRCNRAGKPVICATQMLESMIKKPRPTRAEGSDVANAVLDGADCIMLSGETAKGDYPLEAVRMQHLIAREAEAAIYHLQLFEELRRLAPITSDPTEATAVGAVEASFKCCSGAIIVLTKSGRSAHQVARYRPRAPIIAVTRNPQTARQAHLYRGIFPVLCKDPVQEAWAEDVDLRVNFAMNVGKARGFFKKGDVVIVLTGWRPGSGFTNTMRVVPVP
Assay: Human PKM2 activation assay (Kinase-Glo Plus luminescent detection of generated ATP)
Assay type: biochemical
Details: recombinant human PKM2 activation; 4-parameter logistic fit; read-out: hPKM2 EC50
Method: Compound activation of recombinant human PKM2 pyruvate kinase activity was determined by biochemical assay. […] The Kinase-Glo® Plus luminescence assay was from Promega. […] After 60 minutes' incubation on an orbital shaker (300 rpm, 26° C.), enzyme activity was quantified by the luminescent detection of generated ATP. […] Percentage activation was calculated by normalising […] signals to plate LOW (DMSO vehicle) and HIGH (5 μM TEPP-46) controls. […]
Property measured: log10(EC50) (log10 of the value in nM)

Molecule	log10(EC50)
CC1Cc2cc(S(=O)(=O)c3ccc4c(=O)n(Cc5ccn(C)n5)ncc4c3)ccc2O1 (centres unmarked) [Example 213]	1.56
O=c1c2ccc(S(=O)(=O)c3ccc4c(c3)CCO4)cc2cnn1Cc1cc[nH]n1 [Example 203]	1.55
COc1ccc(S(=O)(=O)c2ccc3c(=O)n(Cc4cc[nH]n4)ncc3c2)nc1 [Example 257]	2.21
N=S(=O)(c1ccccc1)c1ccc2c(=O)n(Cc3cccc(N)c3)ncc2c1 (centres unmarked) [Example 120]	2.37
NC(=O)c1c[nH]nc1Cn1ncc2cc(S(=O)(=O)c3ccccc3)ccc2c1=O [Example 15]	2.39
O=c1c2ccc(S(=O)(=O)c3ccc4c(c3)OCCO4)cc2cnn1Cc1ccn(CCO)n1 [Example 206]	1.70
CCn1nccc1Cn1ncc2cc(S(=O)(=O)c3ccccc3)ccc2c1=O [Example 83]	2.67
COC(C)c1nc(S(=O)(=O)c2ccc3c(=O)n(Cc4nc(C)c(C)cc4F)ncc3c2)cs1 (centres unmarked) [Example 353]	1.99
